The reported numbers originate from patent US20220175954A1.

Test system: B16-F10 melanoma cells
Assay details: Cancer cell viability under chemotherapeutic drugs in blank cryogels or HICs
Format: cell-based
Test settings: Mus musculus, B16-F10, 48 h, B16-F10 cells in HICs, 48 h
Recorded endpoint: IC50 (µM)
// note: answer is a bare numeric in µM

Quick note, IC50 for COc1cccc2c1C(=O)c1c(O)c3c(c(O)c1C2=O)C[C@@](O)(C(=O)CO)C[C@@H]3O[C@H]1C[C@H](N)[C@H](O)[C@H](C)O1 landed at 46.2

---

System: 4T1 breast cancer cells
Assay details: Cancer cell viability under chemotherapeutic drugs in blank cryogels or HICs
Type: cell-based
Test settings: Mus musculus, 4T1, 24 h, 4T1 cells within blank cryogels, 24 h
Recorded endpoint: IC50 (nM)
// note: answer is a bare numeric in nM

Quick note, IC50 for COc1cccc2c1C(=O)c1c(O)c3c(c(O)c1C2=O)C[C@@](O)(C(=O)CO)C[C@@H]3O[C@H]1C[C@H](N)[C@H](O)[C@H](C)O1 [doxorubicin] landed at 1080
